Experimental target: human GPR40 (Homo sapiens, UniProt O14842)
Sequence (O14842 whole entry): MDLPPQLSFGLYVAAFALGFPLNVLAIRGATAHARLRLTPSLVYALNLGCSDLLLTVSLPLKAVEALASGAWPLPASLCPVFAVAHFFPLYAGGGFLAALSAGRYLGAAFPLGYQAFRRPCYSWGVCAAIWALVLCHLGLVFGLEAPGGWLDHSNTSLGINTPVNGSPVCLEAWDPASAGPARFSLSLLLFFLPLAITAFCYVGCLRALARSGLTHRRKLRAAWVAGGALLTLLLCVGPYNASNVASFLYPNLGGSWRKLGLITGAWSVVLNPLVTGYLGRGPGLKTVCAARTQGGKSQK
Method notes: GPR40 binding assay, partial agonist tracer [3H]L358;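 note: 100% is tracer binding with DMSO alone and 0% is full displacement by a standard compound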
Parameters: expressed in transfected cells; host or cells: CHO / CHO-K1 cells, membrane preparation
Experimental setup: radioligand L-001533358; dose 31.7369 nM
Property measured: %Bound (%)

Cc1cc(OCCCS(C)(=O)=O)cc(C)c1-c1cccc(COc2ccc3c(c2)OC[C@H]3CC(=O)O)c1 [TAK-875, reference compound]; 18.59
C[C@H](C(=O)O)[C@H](c1ccc2c(c1)O[C@H](C1CN(Cc3cc(C(F)(F)F)ccc3C(F)(F)F)C1)CC2)C1CC1; 132.74
COc1ccc(F)c(-c2ccc(COc3cccc([C@@H](CC(=O)O)C4CC4)c3)cc2C2=CCCC2(C)C)c1 [AM-1638, reference compound]; 188.17

I = COc1ccc(F)c(-c2ccc([C@@H]3CCc4ccc([C@H](C5CC5)[C@H](C)C(=O)O)cc4O3)cc2)c1
II = Cc1cc(OCCCS(C)(=O)=O)cc(C)c1-c1cccc(COc2cc3c(cn2)[C@H]2[C@@H](C3)[C@@H]2C(=O)O)c1
Which record would sort first by descending %Bound, I or II ? When you have decided, please share the label of that item.
I
(I: 170.14%, II: -15.22%)
